As shown below, each of these compounds has a reported composite z-score value.
target: Carbonic anhydrase 2 (Homo sapiens) (UniProt P00918); experiment: CAII small-molecule binders, profiling panel, biochemical, small-molecule microarray, Alexa647-labelled CAII (AID 1122); settings: CAII-A647 binding fluorescence, higher = more signal
// no unit string in output, number only

Solved entries (count: 2):
In [3]: df
Out[3]:
                                   compound  observed_measurement
0  COC(=O)[C@@]1(Cc2ccc(F)cc2)[C@H]2c3cc(C(=O)N4CCCC4)n(CCc4c[nH]c5cc(F)ccc45)c3C[C@H]2CN1C(=O)c1ccccc1                 0.767
1  C=C(COC)C(=O)CC[C@H](OC(C)=O)c1ccccc1OCCO                 0.662

Sure, the documented composite z-score for COc1ccc(-c2cc3c(c(CCc4ccccc4)n2)[Si](C(C)C)(C(C)C)O[C@H]3c2ccccc2)cn1 is -0.299

Sure, the documented composite z-score for CCCCCN1CC=CC23O[C@@H]4/C=C\CCCOC(=O)C4[C@H]2C(=O)N(CCCCCO)[C@@H]3C1=O (some centres undefined) is 0.777

###

As shown below, each of these compounds has a reported z-score value.
assay: osmotic lysis modulators in infected erythrocytes, primary screen, PSAC antagonist project, cell-based, P. falciparum Indochina, OD700, 3 h (AID 1156); details: higher = more signal, called active from +8 up or from −8 down
// no unit string in output, number only

In [3]: df
Out[3]:
                                   compound  measurement_name  observed_measurement
0  COCCCNC(=O)[C@@]1(c2ccc([N+](=O)[O-])cc2)CC(=O)N(C2CCCCC2)[C@@H]1c1ccc(CO)cc1I           z-score                  3.44
1       C=C[C@@H](CO)NS(=O)(=O)c1ccc(Br)cc1           z-score                 -1.12
2  CC1C2C(CCCO)=CC(C3C(=O)N(C)C(=O)C23)N1Cc1cccc(OC(F)(F)F)c1 (centres undefined)           z-score                  1.07

Consider the record given below.
Sure, the documented z-score for CO[C@H]1O[C@H](CO)[C@@H](OC(=O)Nc2ccccc2)[C@@H]2OC(=O)[C@@H](Cc3ccccc3)C/C=C/C[C@H](Cc3ccccc3)C(=O)O[C@@H]12 is 0.288

###

target: E3 ubiquitin-protein ligase XIAP (Homo sapiens) (UniProt P98170); test: XIAP binders, primary screen, biophysical, small-molecule microarray, fluorescence 635 nm (AID 1181); settings: small-molecule microarray binding, higher = more signal;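 note: score merges 667 nm emission and signal to noise over triplicate slides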
Sequence (P98170 whole entry, looked up): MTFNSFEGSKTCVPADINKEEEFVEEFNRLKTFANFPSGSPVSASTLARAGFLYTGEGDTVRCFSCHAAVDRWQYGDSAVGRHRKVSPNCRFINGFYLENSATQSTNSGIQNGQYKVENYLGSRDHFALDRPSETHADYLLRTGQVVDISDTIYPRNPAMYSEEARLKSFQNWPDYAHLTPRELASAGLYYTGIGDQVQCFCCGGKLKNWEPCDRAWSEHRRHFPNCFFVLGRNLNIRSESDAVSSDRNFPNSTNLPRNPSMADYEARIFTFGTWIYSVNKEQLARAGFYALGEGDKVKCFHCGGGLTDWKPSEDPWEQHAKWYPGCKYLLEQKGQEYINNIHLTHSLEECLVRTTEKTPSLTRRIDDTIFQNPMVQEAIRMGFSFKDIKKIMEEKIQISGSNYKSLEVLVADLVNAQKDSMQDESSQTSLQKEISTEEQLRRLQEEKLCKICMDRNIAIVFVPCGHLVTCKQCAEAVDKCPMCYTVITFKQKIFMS
As shown below, each of these compounds has a reported composite z-score value.
// no unit string in output, number only

Sure, the documented composite z-score for COCCOC(=O)N1C(=O)[C@@]2(c3cc(C#CC4=CCCCC4)ccc31)[C@H](C(=O)N1CCCCCCC1)[C@H]1C(=O)O[C@H](c3ccccc3)[C@H](c3ccccc3)N1[C@@H]2c1ccccc1OCCO is -0.0244

Sure, the documented composite z-score for C=C(CCCC)/C(=C/C[C@@H](OC(C)=O)c1cccc(OCCO)c1)c1cc(C(=O)OC)ccc1OC is -0.0447

Sure, the documented composite z-score for O=C(NCC(F)(F)F)[C@@H]1c2ccccc2C(=O)N(Cc2cc(C(F)(F)F)cc(C(F)(F)F)c2)[C@H]1c1ccc(CO)cc1 is 0.295

All values here come from PubChem BioAssay.
